# Measurement target: CDK2/Cyclin A2 (Homo sapiens, UniProt P24941)
pIC50: −log10 of the molar value.
Each entry below lists one item and its recorded pIC50 value.

{"columns": ["Smiles notation", "Sign", "pIC50"],
 "data": [
  ["CCN1CCN(c2ccc(Nc3ncc(Cl)c(Nc4ccccc4C)n3)nc2)CC1", "=", 5.04],
  ["Cc1ccccc1Nc1nc(Nc2ccc(N3CCNCC3)cn2)ncc1Cl", "=", 5.69],
  ["Cc1ccccc1Nc1nc(NCCc2ccccc2)ncc1Cl", "<", 5.00],
  ["Cc1ccc(Nc2ncc(Cl)c(Nc3ccccc3C)n2)cc1", "<", 5.00],
  ["Cc1ccccc1Nc1nc(Nc2ccc(N3CCCCC3)cc2)ncc1Cl", "=", 5.43],
  ["CN1CCN(c2ccc(Nc3ncc(Cl)c(NCc4ccc(F)cc4)n3)nc2)CC1", "<", 5.00],
  ["CN1CCN(c2ccc(Nc3ncc(Cl)c(NCc4ccco4)n3)nc2)CC1", "<", 5.00],
  ["COc1cc(Nc2ncc(Cl)c(Nc3ccccc3C)n2)ccn1", "=", 7.13],
  ["Cc1ccccc1Nc1nc(Nc2ccc(N3CCN(C(=O)OC(C)(C)C)CC3)cc2)ncc1Cl", "=", 6.72],
  ["Cc1ccccc1Nc1nc(NCc2ccccc2)ncc1Cl", "<", 5.00],
  ["Cc1ccccc1Nc1nc(NCc2ccco2)ncc1Cl", "<", 5.00]
]}

----------
# Measurement target: CDK9/Cyclin K (Homo sapiens, UniProt P50750)
# Sequence (P50750 whole entry): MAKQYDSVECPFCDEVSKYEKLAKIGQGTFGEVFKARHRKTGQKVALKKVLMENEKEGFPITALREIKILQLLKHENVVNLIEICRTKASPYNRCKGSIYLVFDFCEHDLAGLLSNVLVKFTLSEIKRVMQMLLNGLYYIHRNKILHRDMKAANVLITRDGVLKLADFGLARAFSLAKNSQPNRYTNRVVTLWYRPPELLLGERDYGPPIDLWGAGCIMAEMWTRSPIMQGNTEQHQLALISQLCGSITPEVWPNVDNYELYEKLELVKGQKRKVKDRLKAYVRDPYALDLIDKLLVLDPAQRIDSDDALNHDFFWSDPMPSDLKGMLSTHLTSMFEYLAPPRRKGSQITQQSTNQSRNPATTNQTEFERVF
# Sequence (O75909 whole entry, further chain): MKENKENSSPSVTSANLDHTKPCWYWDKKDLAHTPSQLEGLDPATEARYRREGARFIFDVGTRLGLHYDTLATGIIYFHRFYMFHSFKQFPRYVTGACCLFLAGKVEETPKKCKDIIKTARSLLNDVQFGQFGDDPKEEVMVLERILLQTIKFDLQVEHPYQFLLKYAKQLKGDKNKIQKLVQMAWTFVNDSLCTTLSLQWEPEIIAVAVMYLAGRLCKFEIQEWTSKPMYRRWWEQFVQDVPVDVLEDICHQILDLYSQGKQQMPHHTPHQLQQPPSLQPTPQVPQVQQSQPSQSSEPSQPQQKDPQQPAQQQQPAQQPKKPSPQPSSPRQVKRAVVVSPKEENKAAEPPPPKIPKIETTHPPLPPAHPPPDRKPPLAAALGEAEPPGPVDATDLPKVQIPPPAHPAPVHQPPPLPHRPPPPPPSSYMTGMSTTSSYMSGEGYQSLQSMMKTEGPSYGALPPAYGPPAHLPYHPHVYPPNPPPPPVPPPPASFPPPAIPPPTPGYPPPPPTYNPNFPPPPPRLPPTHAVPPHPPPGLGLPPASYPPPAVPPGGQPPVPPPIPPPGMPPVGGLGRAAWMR
# Measurement description: biochemical
pIC50: −log10 of the molar value.
Please note: label 1 applies when pIC50 is 6 or greater, and label 0 applies otherwise.

{"columns": ["Smiles notation", "Cat"],
 "data": [
  ["Cc1ccccc1Nc1nc(NC2CCCCC2)ncc1Cl", "label 0"],
  ["Cc1ccccc1Nc1nc(Nc2ccc(N3CCN(C)CC3)cc2)ncc1Cl", "label 1"],
  ["Cc1ccccc1Nc1nc(Nc2ccc(N3CCCCC3)cn2)ncc1Cl", "label 0"],
  ["Cc1ccccc1Nc1nc(Nc2ccc(N3CCOCC3)cn2)ncc1Cl", "label 1"],
  ["CCN1CCN(c2ccc(Nc3ncc(Cl)c(Nc4ccccc4C)n3)nc2)CC1", "label 0"],
  ["Cc1cc(C)c(Nc2nc(Nc3ccc(N4CCN(C)CC4)cn3)ncc2Cl)c(C)c1", "label 0"],
  ["Cc1ccccc1Nc1nc(Nc2ccncc2)ncc1Cl", "label 0"],
  ["Cc1ccccc1Nc1nc(Nc2cccnc2)ncc1Cl", "label 0"],
  ["COc1ccccc1CNc1nc(Nc2ccc(N3CCN(C)CC3)cn2)ncc1Cl", "label 0"],
  ["Cc1ccccc1Nc1nc(Nc2ccc(N3CCCCC3)cc2)ncc1Cl", "label 0"],
  ["COC[C@@H](C)N[C@H]1CC[C@H](Nc2cc(-c3cccc(NCC4(C#N)CCOCC4)n3)c(Cl)cn2)CC1", "label 1"],
  ["CN1CCN(c2ccc(Nc3ncc(Cl)c(NCc4ccc(F)cc4)n3)nc2)CC1", "label 0"],
  ["Cc1cccc(Nc2nc(Nc3ccc(N4CCN(C)CC4)cn3)ncc2Cl)c1", "label 1"],
  ["Cc1ccccc1Nc1nc(Nc2ccccn2)ncc1Cl", "label 0"],
  ["Cc1ccccc1Nc1nc(Nc2ccc(N3CCN(C(=O)OC(C)(C)C)CC3)cc2)ncc1Cl", "label 1"],
  ["CN1CCN(c2ccc(Nc3ncc(Cl)c(Nc4ccc(C(C)(C)C)cc4)n3)nc2)CC1", "label 0"],
  ["Cc1ccc(Nc2ncc(Cl)c(Nc3ccccc3C)n2)cc1", "label 0"]
]}

Origin of measurements: ChEMBL document CHEMBL4602695
